experiment: CCTE_Mundy_HCI_hNP1_Casp3_7: CCTE's Caspase-Glo 3/7 Assay in human neuroprogenitor cells for Apoptosis, Mundy Lab (AID 2284240)
Calls of active or inactive are those of the source. The calls were made as follows: active = hit-call score of the fitted dose curve at least 0.9, where 1 is the maximum; inactive = score below 0.9.
Classes used: 1 (active), -1 (inactive)

molecule | cat
O=[N+]([O-])/N=C1\NCCN1Cc1ccc(Cl)nc1 | -1
CNC(=O)CSP(=S)(OC)OC | -1
CC[C@H](C)[C@H]1O[C@]2(C=C[C@@H]1C)C[C@@H]1C[C@@H](C/C=C(\C)[C@@H](O[C@H]3C[C@H](OC)[C@@H](O[C@H]4C[C@H](OC)[C@@H](O)[C@H](C)O4)[C@H](C)O3)[C@@H](C)/C=C/C=C3\CO[C@@H]4[C@H](O)C(C)=C[C@@H](C(=O)O1)[C@]34O)O2 (tested in a mixture with another compound) | 1
COP(=S)(OC)Oc1ccc([N+](=O)[O-])cc1 | -1
O=C(O)C(F)(F)C(F)(F)C(F)(F)C(F)(F)C(F)(F)C(F)(F)C(F)(F)F | -1

----------
read-out: Macrophage colony-stimulating factor (MCSF), CSF1 (gene 1435); assay: BSK_CASM3C_MCSF: BioMAP Diversity Plus: CASM3C Assay for Macrophage colony-stimulating factor (MCSF) Biomarker Activity (AID 2283044); conditions: primary human coronary artery smooth muscle cells; actives raise or lower the signal;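 also: M-CSF protein amount quantified by ELISA after 24 h exposure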
Calls of active or inactive are those of the source. How the source made its calls: active means hit-call score of the fitted dose curve at least 0.9, where 1 is the maximum; inactive means score below 0.9.
Classes used: active, inactive

compound | cat
O=C(Nc1ccccc1)Nc1cnns1 | inactive
OCCOc1ccccc1 | inactive
O=C(NC(=O)c1c(F)cccc1F)Nc1ccc(OC(F)(F)C(F)OC(F)(F)F)c(Cl)c1 (stereo not drawn) | inactive
CCc1ccc(C(=O)NN(C(=O)c2cc(C)cc(C)c2)C(C)(C)C)cc1 | inactive
CCC(C)(C)C(=O)OC1=C(c2ccc(Cl)cc2Cl)C(=O)OC12CCCCC2 | active
CC(C)(C)C(O)C(Oc1ccc(Cl)cc1)n1cncn1 (stereo not drawn) | inactive
CCC(C)(NC(=O)c1cc(Cl)c(C)c(Cl)c1)C(=O)CCl (stereo not drawn) | active
CCC(C)Nc1c([N+](=O)[O-])cc(C(C)(C)C)cc1[N+](=O)[O-] (stereo not drawn) | inactive
CCCN(CCOc1c(Cl)cc(Cl)cc1Cl)C(=O)n1ccnc1 | inactive
N#Cc1c(Cl)c(Cl)c(Cl)c(C#N)c1Cl | active
O=C(O)C(F)(F)C(F)(F)C(F)(F)C(F)(F)C(F)(F)C(F)(F)C(F)(F)F | inactive
O=[N+]([O-])c1c(Cl)c(Cl)c(Cl)c(Cl)c1Cl | inactive
CCOCN(C(=O)CCl)c1c(C)cccc1CC | inactive
Cc1cc(C)nc(NC(=O)NS(=O)(=O)c2ccccc2C(=O)OC2COC2)n1 | inactive
COP(=O)(OC)OC=C(Cl)Cl | inactive
O=C(O)COc1ccc(Cl)cc1Cl | inactive
CNC(=O)Oc1ccccc1OC(C)C | inactive
COC(=O)c1ccccc1S(=O)(=O)NC(=O)N(C)c1nc(C)nc(OC)n1 | inactive

----------
assay: CCTE_Shafer_MEA_acute_cross_correlation_area: CCTE's Neural Acute Assay for Area of Cross Correlation, Shafer Lab (AID 2284024);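 also: area under pooled inter-electrode spike cross-correlation near zero lag as percent change from own baseline; curves fitted for loss of cross-correlation area so actives lower synchrony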
Active and inactive are the calls of the source. How the source made its calls: active means hit-call score of the fitted dose curve at least 0.9, where 1 is the maximum; inactive means score below 0.9.
Classes used: 1 for active, -1 for inactive

compound | cat
Oc1ccc(Cl)cc1Cc1ccccc1 | 1
ClC1C(Cl)C(Cl)C(Cl)C(Cl)C1Cl (stereo not drawn) | 1
C[C@H]1[C@H](c2ccc(Cl)cc2)SC(=O)N1C(=O)NC1CCCCC1 | -1
